target: T1, CBD-toxin A-Fc (Clostridium difficile, UniProt P16154 1848-2710); experiment: SPR Biacore, CBD-A-Fc captured, 500 nM mAb flowed
T1 construct: also called CBD-A; C-term Toxin A
I'd appreciate it if you could supply binding (RU) values for the items below.
All answers are understood in RU, so give the number only.

Problem: Complete the entry with binding (RU) for H1M3117N (antibody, V domains shown) VH: EVQLLESGGGLAQPGGSLRLSCAASGFNFGTHDMSWVRQAPGKGLEWVSGLTSTGGSASSADSVKGRFTISRDNSKNILYLQMNSLRAEDTAVYYCAKTFNWNSYFDYWGQGTLVTVSS VL: EIVLTQSPGTLSLSPGERATLSCRASQSISTYYLAWYQQKPDQPPRLLIYGTSSRATGIPDRFSGSGSGTDFTLTISRLDPEDFAVYYCQQYGNSLYTFGQGTKLEIK
Result: 350

Problem: Complete the entry with binding (RU) for H1H3344P (antibody, V domains shown) VH: EVQLVESGGGLVQPGGSLRLSCAASGFTFKIYAMSWVRQGPGKGLEWVSAISGNGDKTYYTDSVQGRFTISRDNSKNTLFLQMNSLRAEDTAIYYCARGWELLNYWGQGTLVTVSS VL: DIQMTQSPSSLSASIGDRVTITCRASQDISNSLAWFQQKPGKAPKSLIYAASSLQSGVPSRFSGSGSGTDFTLTISSLQPEDFATYYCQQYIPFPPTFGPGTKVDIKR
Result: 5

Problem: Complete the entry with binding (RU) for H2M3123N (antibody, V domains shown, also called H2aM3123N; H1M3123N) VH: DVQLVESGGDFVQPGGSLRLSCAASGVAFNDYEMNWIRQAPGKRLEWISHIDSSGTIIYYADSVKGRFTISRDSAKNSLFLQMDSLRAEDTAVYYCARERYSHYGYYYFGMDVWGQGTTVTVSS VL: DIQMTQSPSTLSASVGDRVTITCRASQNIDNWLAWYQQKTGKAPNLLIYKASTLESGVPSRFSGSGSGTEFTLTIISLQPDDFATYYCQEYNTYSRTFGQGTKVEIK
Result: 23
